B1: library; a variant is named by its letters at N, in order (parent)
chain: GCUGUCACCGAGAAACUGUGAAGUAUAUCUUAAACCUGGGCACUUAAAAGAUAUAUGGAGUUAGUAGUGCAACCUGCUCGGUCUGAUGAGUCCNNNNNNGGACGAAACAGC

# Variants of: B1
# Method description: normalized RNA/DNA level without ligand (relative to sTRSVctl = 100) (log10 (% of sTRSVctl)); HEK293T; ligand: cyclic di-GMP (c-di-GMP-II aptamer); higher = less ribozyme self-cleavage, higher mRNA level
# Condition label: reporter: mCherry (pCS4076), ligand present: no
Value type: normalized RNA/DNA level without ligand (log10)

    sequence_change  readout_value
 0           GUCGAA           1.49
 1           CAGCUU           1.62
 2           CCGGCG           1.69
 3           GCGACG           1.55
 4           UCAUCU           1.71
 5           GGUGCC           1.82
 6           CCCAGG           1.77
 7           UAUUUA           1.71
 8           AGGUUG            1.7
 9           CUCUCU           1.63
10           AUCGUU            1.6
11           GAGCUU            1.8
12           GCAUGG           1.46
13           CCGAAU           1.48
14           GUAUUG           1.53
15           GCGGGG           1.74
16           GAAGCU           1.71
17           AUAGCA           1.71
18           GCGCGC           1.64
19           GCUUUA           1.63
20           UACCCA           1.73
21           CAUUGC           1.78
